# Test system: N9
# EXPERIMENT SUMMARY: Compound was tested for the inhibition of beta-Amyloid Production in N9 cell line expressing beta-APP
# Assay type: functional, cell-based
# CONDITION CONTEXT: Homo sapiens
VALUE TYPE: pIC50
pIC50 here: minus log base 10 of the concentration, concentration in moles per litre.

# molecule CCC(C)[C@H](NC(=O)/C=C/c1cc(OC)cc(OC)c1)C(=O)N[C@H](C=O)CC(C)C (stereo partly specified) ; its pIC50 = 5.02
